Tested on: P388/L-PAM leukemia
ASSAY INFO: cells
Format: cell-based, mice
ASSAY SETUP: Mus musculus, P388, 24 h, read-out: T.C.D.50
PROPERTY: pIC50
Just so you know, pIC50 here is -log10 of the concentration in molar units; reply with that number alone.

Problem: Could you please provide reported pIC50 for CCOC(=O)[C@H](CCSC)NC(=O)[C@H](Cc1cccc(N(CCCl)CCCl)c1)NC(=O)[C@@H](N)Cc1ccc(F)cc1.Cl [PTT.119, hydrochloride] ? Thanks!
Solution: 5.30

Values from patent US4740501A
